# Kd per record follows
Molecular target: T1, human bone morphogenic protein 4 (BMP4) (human, UniProt P12644 293-408)
T1 construct: Bought recombinant human BMP4 (R&D Systems); also called recombinant human BMP4
T1 sequence: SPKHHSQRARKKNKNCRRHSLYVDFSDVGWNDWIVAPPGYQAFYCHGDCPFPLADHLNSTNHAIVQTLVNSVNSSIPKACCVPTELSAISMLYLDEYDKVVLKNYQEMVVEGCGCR
Assay: SPR (Biacore); mAb captured via anti-human Fc, BMP flowed at 10 nM
Please state the figure in nM; there is no need to write the unit.

Please review the following examples before continuing.
33F7 human monoclonal antibody (antibody, V domains shown, Human IgG from a HuMAb/KM mouse hybridoma) VH: QVQLVQSGAEVKKPGSSVKVSCKASGGTFSSYAINWVRQAPGQGLEWMGRLIPILGIANYAQKFQGRVTITADKSTSTAYMELSSLRSEDTAVYYCARGKDIWGQGTMVTVSS VL: EIVLTQSPGTLSLSPGERVTLSCRASQSVSSNYLAWYQQKPGQAPRLLIKGASSRATGIPDRFSGSGSGTDFTLTISRLEPEDFAVYYCQQYGSSPCTFGQGTKLEIK
0.38
7D6 human monoclonal antibody (antibody, V domains shown, Human IgG from a HuMAb/KM mouse hybridoma) VH: QVQLVQSGAEVKKPGSSVKVSCKASGGTFSSYAISWVRQAPGQGLEWMGRIIPILGIVNYAQKFQGRVTITADKSTSTAYMELSSLRSEDTAVYYCARGKDIWGQGTMVTVSS VL: EIVLTQSPGTLSLSPGERATLSCRASQIVISTYLAWYQQKPGQAPRLLIYGASSRATGIPDRFSGSGSGTDFTLTISRLEPEDFAVYYCQQYGSSPCTFGQGTKLEIK
0.42
6H4 human monoclonal antibody (antibody, V domains shown, Human IgG from a HuMAb/KM mouse hybridoma) VH: QVHLQQWGAGLLKPSETLSLTCAVYGGSFSGYYWSWIRQPPGKGLEWIGEINHSGSTNYNPSLKSRVTISVDTSKNQFSLKLSSVTAADTAVYYCAREYYYGSESEYFQHWGQGTLVTVSS VL: EIVLTQSPATLSLSPGERATLSCRASQSVSSYLAWYQQKPGQAPRLLIYDASNRATGIPARFSGSGSGTDFTLTISSLEPEDFAVYYCQQRSNWPHTFGQGTKLEIK
0.3

Input: For 10F6 human monoclonal antibody (antibody, V domains shown, Human IgG from a HuMAb/KM mouse hybridoma) VH: QVQLVESGGGVVQPGRSLRLSCAASGFTFRSYGIHWVRQAPGKGLEWVAVIWYDGSHKYYADSVKGRFTISRDNSKNTLDLQMNSLRAEDTAVYYCVRGSSNWYFDYWGQGTLVTVSS VL: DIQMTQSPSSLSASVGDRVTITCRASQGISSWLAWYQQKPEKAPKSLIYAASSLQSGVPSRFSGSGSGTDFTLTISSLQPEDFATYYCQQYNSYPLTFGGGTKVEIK , what is its reported Kd?
Output: 0.75

Input: Proceed to 12E3 human monoclonal antibody (antibody, V domains shown, Human IgG from a HuMAb/KM mouse hybridoma) VH: QVQLVESGGGVVQPGRSLRLSCAASGFTFSSYGMHWVRQAPGKGLEWVAVIWDDGRKKYYADSVKGRFTISRDNSKNTLYLQMNSLRAEDTAVYYCAREPAGVWGMDVWGQGTTVTVSS VL: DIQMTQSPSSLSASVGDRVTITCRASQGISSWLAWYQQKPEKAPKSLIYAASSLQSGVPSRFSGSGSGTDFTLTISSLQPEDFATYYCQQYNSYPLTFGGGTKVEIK
Output: 0.28

Input: Proceed to 16B7 human monoclonal antibody (antibody, V domains shown, Human IgG from a HuMAb/KM mouse hybridoma) VH: QVQLVESGGGVVQPGRSLRLSCAASGFTFSNYGIHWVRQAPGKGLEWVAVIWYDGSHKYYADSMKGRFTISRDNSKNTLDLQMNSLRAEDTAVYYCARGSSSWYFDLWGRGTLVTVSS VL: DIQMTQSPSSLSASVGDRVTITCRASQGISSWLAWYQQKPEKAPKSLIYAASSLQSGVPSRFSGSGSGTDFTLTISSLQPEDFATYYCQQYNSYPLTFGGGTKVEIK
Output: 0.02
